# pIC50 values compiled below
- Experimental target: purine nucleoside phosphorylase (PNP) (Bos taurus)
- Construct: using calf spleen as the enzyme source; from tissue; host or cells: calf spleen
- Procedure summary: biochemical
- Format: biochemical, calf
- Condition parameters: read-out: PNP activity (IC50) at 50 mM phosphate; 50 mM phosphate; calf spleen enzyme
- Procedure: The compound of Example 8 is tested for enzyme inhibition activity.
By convention, pIC50 is the negative base-10 log of a molar concentration.

Nc1nc2c(CC3CCCC3)c[nH]c2c(=O)[nH]1 [Example 41]: 5.74

Now take the following compound into account.
Query string: Tell us which pIC50 value is on record for Nc1nc2c(CC3C4CC5CC(C4)CC3C5)c[nH]c2c(=O)[nH]1 (centres unmarked) [Example 8]
Result string: 5.60

====

- Experimental target: purine nucleoside phosphorylase (PNP) (Bos taurus, UniProt P55859)
- Construct: using calf spleen as the enzyme source; from tissue; host or cells: calf spleen
- Procedure summary: biochemical
- Assay type: biochemical, calf
- Condition parameters: 1 mM phosphate; calf spleen enzyme; read-out: PNP activity (IC50) at 1 mM phosphate
Measured metric: IC50 (nM)
Give the value in nM but do not write nM after it.

Example compounds with recorded IC50:
Nc1nc2c(CC3CCCC3)c[nH]c2c(=O)[nH]1 [Example 41]: 29
Nc1nc2c(CC3C4CC5CC(C4)CC3C5)c[nH]c2c(=O)[nH]1 (stereo not drawn) [Example 8]: 90

// next item, IC50 requested
Query string: Supply recorded IC50 for Nc1nc2c(CC3CCCCCC3)c[nH]c2c(=O)[nH]1 [Example 70] here.
Result string: 30

====

- Experimental target: purine nucleoside phosphorylase (PNP) (Bos taurus, UniProt P55859)
- Construct: using calf spleen as the enzyme source; from tissue; host or cells: calf spleen
- Sequence (P55859 1-289): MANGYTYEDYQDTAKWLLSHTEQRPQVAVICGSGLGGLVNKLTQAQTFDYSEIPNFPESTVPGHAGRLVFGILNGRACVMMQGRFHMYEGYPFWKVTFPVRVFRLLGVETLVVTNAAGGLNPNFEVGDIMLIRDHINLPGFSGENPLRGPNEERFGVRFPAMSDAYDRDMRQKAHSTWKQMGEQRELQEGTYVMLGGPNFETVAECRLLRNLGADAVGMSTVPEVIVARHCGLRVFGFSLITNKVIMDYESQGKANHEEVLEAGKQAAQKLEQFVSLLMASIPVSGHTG
- Procedure summary: biochemical
- Assay type: biochemical, calf
- Condition parameters: read-out: PNP activity (IC50) at 1 mM phosphate
Measured metric: pIC50
Quick note: pIC50 values are minus log10 of concentrations in mol/L.

Query string: Quote pIC50 reported for CC1CCCC(Cc2c[nH]c3c(=O)[nH]c(N)nc23)C1 (stereo not shown) [Example 59] please.
Result string: 7.60

====

- Experimental target: purine nucleoside phosphorylase (PNP) (Bos taurus, UniProt P55859)
- Construct: using calf spleen as the enzyme source; from tissue; host or cells: calf spleen
- Sequence (P55859 1-289): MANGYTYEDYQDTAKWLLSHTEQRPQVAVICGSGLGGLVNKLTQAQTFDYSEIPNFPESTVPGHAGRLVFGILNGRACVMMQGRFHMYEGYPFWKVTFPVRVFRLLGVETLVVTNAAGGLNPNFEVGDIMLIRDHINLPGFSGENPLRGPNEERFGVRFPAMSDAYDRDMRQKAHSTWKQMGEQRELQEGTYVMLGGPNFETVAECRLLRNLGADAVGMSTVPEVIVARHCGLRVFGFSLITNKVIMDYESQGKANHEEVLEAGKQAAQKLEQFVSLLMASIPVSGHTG
- Procedure summary: biochemical
- Type: biochemical, calf
- Condition parameters: PNP activity (IC50) at 50 mM phosphate, 50 mM phosphate; calf spleen enzyme
- Method: The compound of Example 8 is tested for enzyme inhibition activity.
Measured metric: pIC50
API: returns pIC50 as number; meaning -log10 of concentration in mol/L.

Query string: Recall the reported pIC50 of Nc1nc2c(CC3CCCCCC3)c[nH]c2c(=O)[nH]1 when tested on purine nucleoside phosphorylase (PNP) (Bos taurus, UniProt P55859).
Result string: 6.08

// data source = patent US5008265A
